assay: NCI Yeast Anticancer Drug Screen. Data for the rad50EPP+ strain (AID 151); conditions: S. cerevisiae rad50 mutant strain, at 11.0 µM
The panel holds about 79,000 compounds, 15% with a hit somewhere; the sample as a whole holds those more often. Activity calls are given as the source filed them. No stated cut-off is given here; in the data, active means growth inhibition above about 70%; inactive means the rest.
Just give me one of these, please: active, inactive

## Task Write down the call the test reported for this compound. Item: `CNC(=O)OCc1c(COC(=O)NC)c(C)n(-c2ccc(Br)cc2)c1C`
## Result inactive

## Task Write down the call the test reported for this compound. Item: `ClCCCOc1c(Cl)cc(Cl)cc1Cl`
## Result inactive

## Task Write down the call the test reported for this compound. Item: COc1ccc(C(OCC2OC(n3cnc4c(=O)n(Cc5ccccc5[N+](=O)[O-])nnc43)C(O)C2O)(c2ccccc2)c2ccc(OC)cc2)cc1 (stereo unspecified)
## Result inactive

## Task Write down the call the test reported for this compound. Item: COC(=O)C1CCCCC1C(=O)Nc1ccccc1 (stereo unspecified)
## Result inactive

## Task Write down the call the test reported for this compound. Item: `O=S1(=O)CCC2=CC(C(F)(F)F)=CC(C(F)(F)F)=CN21`
## Result inactive

## Task Write down the call the test reported for this compound. Item: NC(N)=NC(N)=Nc1ccccc1 (tested in a mixture with another compound)
## Result inactive

## Task Write down the call the test reported for this compound. Item: O=C1C(CCSc2ccccc2)C(=O)N(c2ccccc2)C1c1ccccc1 (stereo unspecified)
## Result inactive

## Task Write down the call the test reported for this compound. Item: `CC(C)C(c1ccccc1)c1ccccc1`
## Result inactive

Here's the next entry for you.
## Task Write down the call the test reported for this compound. Item: `CN(C)CCCn1c2c3ccccc3ccc2c2oc(=O)c3ccccc3c21`
## Result active
